We begin with a simple list: items and their reported IC50.
testSystem: DNA topoisomerase 2-alpha (Homo sapiens)
Sequence (P11388 whole entry): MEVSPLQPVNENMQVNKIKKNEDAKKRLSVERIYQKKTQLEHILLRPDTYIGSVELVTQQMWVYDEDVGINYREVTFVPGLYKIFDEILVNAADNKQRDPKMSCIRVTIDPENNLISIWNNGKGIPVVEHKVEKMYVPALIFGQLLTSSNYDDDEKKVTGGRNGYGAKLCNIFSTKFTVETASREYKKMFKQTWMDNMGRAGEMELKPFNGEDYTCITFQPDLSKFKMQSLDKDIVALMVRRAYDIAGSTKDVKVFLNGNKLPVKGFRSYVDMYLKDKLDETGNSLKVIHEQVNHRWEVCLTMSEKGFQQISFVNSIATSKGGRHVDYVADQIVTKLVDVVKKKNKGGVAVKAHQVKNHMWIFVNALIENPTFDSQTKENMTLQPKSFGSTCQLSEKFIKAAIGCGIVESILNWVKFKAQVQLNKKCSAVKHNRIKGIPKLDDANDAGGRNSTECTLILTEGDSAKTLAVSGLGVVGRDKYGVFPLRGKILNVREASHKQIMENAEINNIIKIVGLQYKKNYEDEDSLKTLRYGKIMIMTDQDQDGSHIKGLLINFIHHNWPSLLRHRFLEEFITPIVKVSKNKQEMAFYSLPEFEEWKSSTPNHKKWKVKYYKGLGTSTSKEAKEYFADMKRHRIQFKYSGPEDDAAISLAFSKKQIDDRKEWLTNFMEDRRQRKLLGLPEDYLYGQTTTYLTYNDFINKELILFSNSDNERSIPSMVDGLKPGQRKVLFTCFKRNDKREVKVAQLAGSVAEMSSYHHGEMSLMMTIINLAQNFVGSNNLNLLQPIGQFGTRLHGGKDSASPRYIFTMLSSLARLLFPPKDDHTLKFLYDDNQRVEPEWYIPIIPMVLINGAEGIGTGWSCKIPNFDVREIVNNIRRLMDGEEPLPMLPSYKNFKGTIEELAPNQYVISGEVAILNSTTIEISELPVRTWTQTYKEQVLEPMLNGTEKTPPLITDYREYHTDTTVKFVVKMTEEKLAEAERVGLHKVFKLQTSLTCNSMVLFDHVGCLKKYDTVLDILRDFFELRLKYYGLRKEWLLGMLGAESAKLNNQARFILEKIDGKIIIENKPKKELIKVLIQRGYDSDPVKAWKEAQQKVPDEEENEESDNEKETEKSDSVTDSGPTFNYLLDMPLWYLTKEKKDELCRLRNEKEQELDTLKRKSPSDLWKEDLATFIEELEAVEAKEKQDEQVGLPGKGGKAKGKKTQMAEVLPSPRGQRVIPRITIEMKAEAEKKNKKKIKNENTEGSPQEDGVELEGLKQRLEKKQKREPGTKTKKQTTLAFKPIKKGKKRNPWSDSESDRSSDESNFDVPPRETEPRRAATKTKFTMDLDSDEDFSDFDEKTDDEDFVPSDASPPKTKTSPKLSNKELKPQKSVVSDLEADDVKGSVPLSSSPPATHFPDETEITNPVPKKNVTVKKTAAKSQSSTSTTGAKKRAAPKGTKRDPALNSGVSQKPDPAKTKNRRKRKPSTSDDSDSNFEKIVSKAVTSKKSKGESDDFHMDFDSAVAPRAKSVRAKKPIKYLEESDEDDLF
testMethodNotes: Inhibition of recombinant human DNA topoisomerase 2alpha expressed in topoisomerase1 deficient Saccharomyces cerevisiae JEL1 assessed as inhibition of DNA scission activity after 30 mins by agarose gel electrophoresis
Enter your answer as a number in µM; do not include the unit.

## Task Identify the reported IC50 for the following entry. Cc1c2c[n+](C)ccc2cc2c1c1ccccc1n2C
## Result 5

New cases:
## Task Identify the reported IC50 for the following entry. Cc1c2cnccc2cc2c1c1ccccc1n2C
## Result 40

* * *

System: Calf thymus DNA
testMethodNotes: Inhibition of calf thymus DNA topoisomerase 2 assessed as DNA cleavage after 30 mins by agarose gel electrophoresis
Format: nucleic-acid assay, Bos taurus
pIC50: −log10 of the molar value.
endpointLabel: pIC50

## Task Fetch value of pIC50 on Calf thymus DNA for Cc1c2ccncc2c(C)c2c1[nH]c1ccccc12 [ELLIPTECINE] .
## Result < 3.70
